Experiment: Flash point of solvents
Format: physicochemical
Conditions: measured with Cleveland open cup tester or value from 15509 chemical products
OBSERVED PROPERTY: Flash point (°C)

> print(dat)
                                   compound  experimental.value
1  CC(O)CO (stereo not shown) [Propylene glycol]                  99
2  CCCCC(CC)COCCOCCO (stereo not shown) [Diethylene glycol mono2-ethylhexyl ether]                 151
3  CCCCC(CC)CO (stereo not drawn) [2-ethyl-l-hexanol]                  78
4                CCOCCOCCO [Ethyl carbitol]                 102
5                 COCCO [Methyl cellosolve]                  39
6                    OCCO [Ethylene glycol]                 120
7  CCCCOCCOCCOCCCC [Diethyleneglycol dibutyl ether]                 122
